Would you kindly list Release rate for each of these compounds?
- Test: Conversion rate of salt-form prodrugs to parent compound in HEPES buffer solution
- Type: physicochemical
- Test settings: conversion to Compound 1, HEPES buffer pH 7.4, 37 °C, 8 h
Give the value, in units of %, as a plain number.

Lab note: CN(C)C[C@@H]1C(=O)O[C@H]2[C@H]1CC[C@@]1(C)C[C@]13CC[C@@](C)(O)[C@H]23 [compound 21] gave Release rate of 38.9

Recorded result, "C[C@@]12CC[C@@H]3[C@H](OC(=O)[C@H]3CN3CCC4(CC3)CC4)[C@@H]3[C@]1(CC[C@@]3(C)O)C2" , Release rate: 44.1

Lab note: measured Release rate of CN(C)C[C@@H]1C(=O)O[C@H]2[C@H]1CC[C@@]1(C)C[C@]13CC[C@@](C)(O)[C@H]23 [compound 20] was 44.3

The reported value for "CCCN(CCC)C[C@@H]1C(=O)O[C@H]2[C@H]1CC[C@@]1(C)C[C@]13CC[C@@](C)(O)[C@H]23" in terms of Release rate is 40.2

Noted for "C[C@@]12CC[C@@H]3[C@H](OC(=O)[C@H]3CN3CCC3)[C@@H]3[C@]1(CC[C@@]3(C)O)C2" : its Release rate reads 41.8

Please fill in: Release rate reported for "C[C@@]12CC[C@@H]3[C@H](OC(=O)[C@H]3CN3CCCCC3)[C@@H]3[C@]1(CC[C@@]3(C)O)C2" = 42.8

# compound "C[C@@]12CC[C@@H]3[C@H](OC(=O)[C@H]3CN3CCNCC3)[C@@H]3[C@]1(CC[C@@]3(C)O)C2" ; its Release rate = 43.5

Lab note: "C[C@@]12CC[C@@H]3[C@H](OC(=O)[C@H]3CN3CCCC3)[C@@H]3[C@]1(CC[C@@]3(C)O)C2" gave Release rate of 41.3

For this compound ( "CC(C)N(C[C@@H]1C(=O)O[C@H]2[C@H]1CC[C@@]1(C)C[C@]13CC[C@@](C)(O)[C@H]23)C(C)C" ), measured Release rate is 41.2

Briefly, Release rate measured for "CCN(CC)C[C@@H]1C(=O)O[C@H]2[C@H]1CC[C@@]1(C)C[C@]13CC[C@@](C)(O)[C@H]23" : 40.4

Field Release rate (entry CN(C)C[C@@H]1C(=O)O[C@H]2[C@H]1CC[C@@]1(C)C[C@]13CC[C@@](C)(O)[C@H]23 [compound 42] ) reads 42.8

According to the records, this compound "C[C@@]12CC[C@@H]3[C@H](OC(=O)[C@H]3CN3CCOCC3)[C@@H]3[C@]1(CC[C@@]3(C)O)C2" displays Release rate of 42.8

So for "CCOC(=O)[C@@H]1CCCN1C[C@@H]1C(=O)O[C@H]2[C@H]1CC[C@@]1(C)C[C@]13CC[C@@](C)(O)[C@H]23" , the logged Release rate turned out to be 41.1

Measured Release rate of "CCCCN(CCCC)C[C@@H]1C(=O)O[C@H]2[C@H]1CC[C@@]1(C)C[C@]13CC[C@@](C)(O)[C@H]23" : 40.8

====

I'd be grateful if you could share measured Release rate for these entries.
- Test: Conversion rate of salt-form prodrugs to parent compound in HEPES buffer solution
- Type: physicochemical
- Test settings: conversion to Compound 1, HEPES buffer pH 7.4, 37 °C, 1 h
Number in %, nothing else.

Form field Release rate, entry CN(C)C[C@@H]1C(=O)O[C@H]2[C@H]1CC[C@@]1(C)C[C@]13CC[C@@](C)(O)[C@H]23 [compound 42] : 7.0

Reported Release rate of CN(C)C[C@@H]1C(=O)O[C@H]2[C@H]1CC[C@@]1(C)C[C@]13CC[C@@](C)(O)[C@H]23 [compound 41] : 7.0

Reported Release rate ( C[C@@]12CC[C@@H]3[C@H](OC(=O)[C@H]3CN3CCOCC3)[C@@H]3[C@]1(CC[C@@]3(C)O)C2 [compound 25] ) = 6.8

Consider CC(C)N(C[C@@H]1C(=O)O[C@H]2[C@H]1CC[C@@]1(C)C[C@]13CC[C@@](C)(O)[C@H]23)C(C)C [compound 31] . Its measured Release rate is 6.7

====

Could you please report measured Release rate for the items listed next?
- Test: Conversion rate of salt-form prodrugs to parent compound in mouse plasma
- Assay type: in vitro ADME
- Test settings: conversion to Compound 1, mouse plasma, 37 °C, 1 h
Kindly answer with a numeric value in %, unit omitted.

C[C@@]12CC[C@@H]3[C@H](OC(=O)[C@H]3CN3CC4CCCC4C3)[C@@H]3[C@]1(CC[C@@]3(C)O)C2 (stereo partly drawn) [compound 32] yielded Release rate of 6.3

Consider CC(C)N(C[C@@H]1C(=O)O[C@H]2[C@H]1CC[C@@]1(C)C[C@]13CC[C@@](C)(O)[C@H]23)C(C)C [compound 31] . Its measured Release rate is 6.5

For record C[C@@]12CC[C@@H]3[C@H](OC(=O)[C@H]3CN3CCC4(CCCC4)CC3)[C@@H]3[C@]1(CC[C@@]3(C)O)C2 [compound 34] the listed Release rate is 7.8

CN(C)C[C@@H]1C(=O)O[C@H]2[C@H]1CC[C@@]1(C)C[C@]13CC[C@@](C)(O)[C@H]23 [compound 42] has a reported Release rate of 6.3

CN(C)C[C@@H]1C(=O)O[C@H]2[C@H]1CC[C@@]1(C)C[C@]13CC[C@@](C)(O)[C@H]23 [compound 40] has a reported Release rate of 6.7

Value of measured Release rate for the entry CN(C)C[C@@H]1C(=O)O[C@H]2[C@H]1CC[C@@]1(C)C[C@]13CC[C@@](C)(O)[C@H]23 [compound 21] : 5.4

====

- Test: Conversion rate of salt-form prodrugs to parent compound in mouse plasma
- Format: in vitro ADME
- Test settings: conversion to Compound 1, mouse plasma, 37 °C, 12 h
Recorded endpoint: Release rate (%)
Kindly answer with a numeric value in %, unit omitted.

Consider CCN1CCN(C[C@@H]2C(=O)O[C@H]3[C@H]2CC[C@@]2(C)C[C@]24CC[C@@](C)(O)[C@H]34)CC1 [compound 27] . Its measured Release rate is 59.1

Lab note: measured Release rate of CCOC(=O)[C@@H]1CCCN1C[C@@H]1C(=O)O[C@H]2[C@H]1CC[C@@]1(C)C[C@]13CC[C@@](C)(O)[C@H]23 [compound 23] was 52.8

The reported Release rate of the compound C[C@@]12CC[C@@H]3[C@H](OC(=O)[C@H]3CN3CCC3)[C@@H]3[C@]1(CC[C@@]3(C)O)C2 [compound 33] was 50.7

Sure, the documented Release rate for CCCCN(CCCC)C[C@@H]1C(=O)O[C@H]2[C@H]1CC[C@@]1(C)C[C@]13CC[C@@](C)(O)[C@H]23 [compound 30] is 48.8

Recorded result, CC(C)N(C[C@@H]1C(=O)O[C@H]2[C@H]1CC[C@@]1(C)C[C@]13CC[C@@](C)(O)[C@H]23)C(C)C [compound 31] , Release rate: 48.5

Reported Release rate of CN(C)C[C@@H]1C(=O)O[C@H]2[C@H]1CC[C@@]1(C)C[C@]13CC[C@@](C)(O)[C@H]23 [compound 39] : 52.8

The compound CCCN(CCC)C[C@@H]1C(=O)O[C@H]2[C@H]1CC[C@@]1(C)C[C@]13CC[C@@](C)(O)[C@H]23 [compound 29] showed Release rate equal to 49.0

====

- Test: Conversion rate of salt-form prodrugs to parent compound in mouse plasma
- Assay type: in vitro ADME
- Test settings: conversion to Compound 1, mouse plasma, 37 °C, 12 h
- Procedure: Pharmaceutically acceptable salts of guaiane-type sesquiterpene lactone derivatives were selected and evaluated for their conversion rates to Compound 1 and Compound 83 in plasma and HEPES buffer, with results shown in Tables 2-1, 2-2, 3-1, and 3-2. Plasma Preparation: Collect mouse plasma into an EP tube pre-loaded with sodium heparin, centrifuge at 8000 rpm for 10 minutes at 4°C, and then collect the supernatant. […]
Exercise: state measured Release rate for each of the compounds provided.
Please answer using the number first and the unit second.

Query C[C@@]12CC[C@@H]3[C@H](OC(=O)[C@H]3CN3CCCCCCC3)[C@@H]3[C@]1(CC[C@@]3(C)O)C2 [compound 38] yields Release rate of 49.7%

Per the record, C[C@@]12CC[C@@H]3[C@H](OC(=O)[C@H]3CN3CCOCC3)[C@@H]3[C@]1(CC[C@@]3(C)O)C2 [compound 25] has Release rate of 51.8%

Release rate in this record for C[C@@]12CC[C@@H]3[C@H](OC(=O)[C@H]3CN3CCC4(CCCC4)CC3)[C@@H]3[C@]1(CC[C@@]3(C)O)C2 [compound 34] : 58.8%

The recorded Release rate for entry CN(C)C[C@@H]1C(=O)O[C@H]2[C@H]1CC[C@@]1(C)C[C@]13CC[C@@](C)(O)[C@H]23 [compound 21] equals 55.4%
